Entries and their measured DR/DR AA follow.
Assay: Probe fluorescence ratio response to arachidonic acid relative to ADIFAB2
Assay type: binding
Conditions: arachidonic acid; response relative to ADIFAB2

molecule	DR/DR AA
74T 72A 73F (protein, listed as Rattus norvegicus, PEPTIDE (1)...(131) wild-type rat intestinal fatty acid binding protein) AFDGTWKVDRNENYEKFMEKMGINVVKRKLGAHDNLKLTITQEGNKFTVKESSNFRNIDVVFELGVDFAYSAFTGTELTGTWTMEGNKLVGKFKRVDNGKELIAVREISGNELIQTYTYEGVEAKRIFKKE	0.852
82F, 72A (protein, listed as Rattus norvegicus, PEPTIDE (1)...(131) wild-type rat intestinal fatty acid binding protein) AFDGTWKVDRNENYEKFMEKMGINVVKRKLGAHDNLKLTITQEGNKFTVKESSNFRNIDVVFELGVDFAYSAADGTELTGTFTMEGNKLVGKFKRVDNGKELIAVREISGNELIQTYTYEGVEAKRIFKKE	1.029
18V 31F 73M 72A (protein, listed as Rattus norvegicus, PEPTIDE (1)...(131) wild-type rat intestinal fatty acid binding protein) AFDGTWKVDRNENYEKFVEKMGINVVKRKLFAHDNLKLTITQEGNKFTVKESSNFRNIDVVFELGVDFAYSAMDGTELTGTWTMEGNKLVGKFKRVDNGKELIAVREISGNELIQTYTYEGVEAKRIFKKE	1.014
72A 73W 74E (protein, listed as Rattus norvegicus, PEPTIDE (1)...(131) wild-type rat intestinal fatty acid binding protein) AFDGTWKVDRNENYEKFMEKMGINVVKRKLGAHDNLKLTITQEGNKFTVKESSNFRNIDVVFELGVDFAYSAWEGTELTGTWTMEGNKLVGKFKRVDNGKELIAVREISGNELIQTYTYEGVEAKRIFKKE	4.093
31Q3, 72A (protein, listed as Rattus norvegicus, PEPTIDE (1)...(131) wild-type rat intestinal fatty acid binding protein) AFDGTWKVDRNENYEKFMEKMGINVVKRKLQAHDNLKLTITQEGNKFTVKESSNFRNIDVVFELGVDFAYSAADGTELTGTWTMEGNKLVGKFKRVDNGKELIAVREISGNELIQTYTYEGVEAKRIFKKE	1.02
14K, 72A (protein, listed as Rattus norvegicus, PEPTIDE (1)...(131) wild-type rat intestinal fatty acid binding protein) AFDGTWKVDRNENKEKFMEKMGINVVKRKLGAHDNLKLTITQEGNKFTVKESSNFRNIDVVFELGVDFAYSAADGTELTGTWTMEGNKLVGKFKRVDNGKELIAVREISGNELIQTYTYEGVEAKRIFKKE	1.08
31D2, 72A (protein, listed as Rattus norvegicus, PEPTIDE (1)...(131) wild-type rat intestinal fatty acid binding protein) AFDGTWKVDRNENYEKFMEKMGINVVKRKLDAHDNLKLTITQEGNKFTVKESSNFRNIDVVFELGVDFAYSAADGTELTGTWTMEGNKLVGKFKRVDNGKELIAVREISGNELIQTYTYEGVEAKRIFKKE	0.20
23F2, 72A (protein, listed as Rattus norvegicus, PEPTIDE (1)...(131) wild-type rat intestinal fatty acid binding protein) AFDGTWKVDRNENYEKFMEKMGFNVVKRKLGAHDNLKLTITQEGNKFTVKESSNFRNIDVVFELGVDFAYSAADGTELTGTWTMEGNKLVGKFKRVDNGKELIAVREISGNELIQTYTYEGVEAKRIFKKE	0.22
14A 18Y 31W 73G 117V 72A (protein, listed as Rattus norvegicus, PEPTIDE (1)...(131) wild-type rat intestinal fatty acid binding protein) AFDGTWKVDRNENAEKFYEKMGINVVKRKLWAHDNLKLTITQEGNKFTVKESSNFRNIDVVFELGVDFAYSAGDGTELTGTWTMEGNKLVGKFKRVDNGKELIAVREISGNELIQTVTYEGVEAKRIFKKE	0.365
102T, 72A (protein, listed as Rattus norvegicus, PEPTIDE (1)...(131) wild-type rat intestinal fatty acid binding protein) AFDGTWKVDRNENYEKFMEKMGINVVKRKLGAHDNLKLTITQEGNKFTVKESSNFRNIDVVFELGVDFAYSAADGTELTGTWTMEGNKLVGKFKRVDNGKETIAVREISGNELIQTYTYEGVEAKRIFKKE	0.21
72S 74A (protein, listed as Rattus norvegicus, PEPTIDE (1)...(131) wild-type rat intestinal fatty acid binding protein) AFDGTWKVDRNENYEKFMEKMGINVVKRKLGAHDNLKLTITQEGNKFTVKESSNFRNIDVVFELGVDFAYSSAAGTELTGTWTMEGNKLVGKFKRVDNGKELIAVREISGNELIQTYTYEGVEAKRIFKKE	1.648
